B1: ZNF649 (parent)
chain: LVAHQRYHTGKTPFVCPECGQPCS

# Variants of: B1
# Measurement protocol: protein stability index of a GFP-peptide fusion (GPS, HEK-293T) (PSI 1-6); higher = more stable;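 note: lentivirally expressed fusions sorted by FACS into six bins by GFP to DsRed ratio, PSI derived from sequencing read proportions per bin multiplied by bin number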
# Condition description: c terminus: a fixed tail appended
Provide the reported protein stability index of each item.
Give bare numbers.

Example variants with recorded protein stability index:
# Alteration, protein stability index
records = [
    ("K11S", 3.77),
    ("P17Y", 2.48),
    ("P13W", 3.63),
    ("Q21A", 3.06),
    ("S24P", 3.57),
]

# return protein stability index for each item in the list
1. E18V
2. G10P
3. F14Q

OUT:
[2.31, 3.09, 3.38]

For each of the variants below, note its protein stability index.
1. Q21P
2. S24C
3. L1S
4. H4M
5. L1I
6. Q5P
7. A3H

OUT:
1: 2.9; 2: 3.13; 3: 4.24; 4: 2.76; 5: 2.95; 6: 3.32; 7: 3.59

Give one value of protein stability index per listed variant.
1. C16Y
2. P22T
3. P17M
4. S24I
5. V2R
6. C23K
7. P22L

OUT:
1. 2.37
2. 3.33
3. 2.77
4. 2.77
5. 3.36
6. 3.12
7. 3.13

Sourced from the supplement of paper PMC10567573
